measured_on: human LPA1 (Homo sapiens, UniProt Q92633)
Construct: expressed in transfected cells; host or cells: CHO-K1
Sequence (Q92633 whole entry): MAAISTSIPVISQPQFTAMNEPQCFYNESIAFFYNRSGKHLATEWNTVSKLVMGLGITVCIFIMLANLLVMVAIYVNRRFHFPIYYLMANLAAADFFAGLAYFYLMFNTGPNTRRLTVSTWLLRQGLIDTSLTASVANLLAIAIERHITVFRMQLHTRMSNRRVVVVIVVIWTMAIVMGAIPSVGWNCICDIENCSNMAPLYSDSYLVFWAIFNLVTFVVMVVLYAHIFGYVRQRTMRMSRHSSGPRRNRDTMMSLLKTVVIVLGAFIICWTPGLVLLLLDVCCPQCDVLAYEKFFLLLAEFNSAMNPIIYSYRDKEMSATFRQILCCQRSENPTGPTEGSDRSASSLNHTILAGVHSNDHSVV
assay_details: In vitro LPA1 calcium flux antagonist assay - Bioduro protocol
Type: cell-based
condition_label: Table B3; CHO-K1 cells overexpressing human LPA1 and G15a, LPA challenge at EC80; read-out: Activity (IC50 class)
endpoint_name: IC50

Reference set (2 entries):
Exercise: If you can, please state the reported IC50 value of COc1cc2c(c(-c3ccc(NC4(C(=O)O)CCOCC4)cc3COC3CCCC3)c1)OCO2 [Compound 199] .
Key: > 1000 nM

Exercise: Moving on to COC(=O)N1CCC(Nc2cc(C)c(-c3cc(OC)cc(OC)c3)c(COC3CCCC3)c2)(C(=O)O)CC1 [Compound 154]
Key: 100 to 1000 nM

More entries:
Exercise: If you can, please state the reported IC50 value of COc1cc(-c2ccc(NC3(C(=O)O)CCOCC3)cc2CCC2CCOC2)cc(OC)c1C (single isomer, unassigned) [Compound 186] .
Key: < 100 nM

Exercise: Moving on to CCCc1cccc(-c2ccc(NC3(C(=O)O)CCOCC3)cc2COC2CC2)c1F [Compound 326]
Key: 100 to 1000 nM

Exercise: Moving on to COc1cc(-c2ccc(NC3(C(=O)O)CCOCC3)cc2COC2CCCC2)c(F)c(OC)c1C(C)O (stereo not drawn) [Compound 299]
Key: < 100 nM

Exercise: Moving on to O=C(O)C1(Nc2ccc(-c3cccc(OC4CC4)c3F)c(COC3CCCC3)c2)CCOCC1 [Compound 265]
Key: < 100 nM

Exercise: Moving on to COc1cc(-c2ccc(NC3(C(=O)O)CCOCC3)cc2COC2CCCC2)c(C(F)F)c(OC)n1 [Compound 283]
Key: < 100 nM

Exercise: Moving on to COc1cc(-c2ccc(NC3(C(=O)O)CCC3)cc2COC2CC2)c(F)c(OC)c1C [Compound 362]
Key: 100 to 1000 nM

Exercise: Moving on to COc1cc(-c2ccc(OC3(C(=O)O)CCOCC3)cc2CCC2CCOC2)c(F)c(OC)c1C (stereo not drawn) [Compound 260]
Key: 100 to 1000 nM

Exercise: Moving on to COc1cc(-c2ccc(NC3(C(=O)O)CC(O)C3)cc2COC2Cc3ccccc3C2)cc(OC)c1C (stereo not drawn) [Compound 130]
Key: 100 to 1000 nM

Exercise: Moving on to COc1cc(-c2ccc(NC3(C(=O)O)CC(OC)C3)cc2COC2Cc3ccccc3C2)cc(OC)c1C (single isomer, unassigned) [Compound 126]
Key: < 100 nM

Exercise: Moving on to CCOCc1cc(NC2(C(=O)O)CCOCC2)ccc1-c1cc(OC)c(C)c(OC)c1F [Compound 350]
Key: > 1000 nM

Exercise: Moving on to COc1cc(OC2CC2)c(F)c(-c2ccc(NC3(C(=O)O)CCOCC3)cc2COC2CCCC2)c1 [Compound 249]
Key: < 100 nM

Exercise: Moving on to CCOc1cncc(-c2ccc(C3(C(=O)O)CC3)cc2COC2CCCC2)c1C(F)F [Compound 412]
Key: 100 to 1000 nM

Exercise: Moving on to COc1cc(-c2ccc(NC3(C(=O)O)CC3)cc2COC2Cc3ccccc3C2)cc(OC)c1C(C)=O [Compound 121]
Key: < 100 nM
